assay: Timed organ biodistribution of [^64Cu]Cu-DOTATATE by ex vivo gamma counting; format: in vivo, mice; details: mouse, lungs, intravenous, 1.85 MBq, total radioactivity; female C57BL/6 mice, 30 min after injection, median (IQR), N=3-7; read-out: Tissue radioactivity, lungs
property_label: tissue uptake at 0.5 h (%ID/g)
# unit: %ID/g | format: bare number

Memo: C[C@@H](O)[C@H](NC(=O)[C@@H]1CSSC[C@H](NC(=O)[C@@H](Cc2ccccc2)NC(=O)CN2CCN(CC(=O)O)CCN(CC(=O)O)CCN(CC(=O)O)CC2)C(=O)N[C@@H](Cc2ccc(O)cc2)C(=O)N[C@H](Cc2c[nH]c3ccccc23)C(=O)N[C@@H](CCCCN)C(=O)N[C@@H]([C@@H](C)O)C(=O)N1)C(=O)O [[^64Cu]Cu-DOTATATE, metal not drawn] , reported tissue uptake at 0.5 h: 1.3
